- Test system: MOLM14 D835Y cells
- EXPERIMENT NOTES: MOLM14 D835Y cell viability assay (Cell Titer Glo)
- Type: cell-based
- CONDITION LABEL: Homo sapiens, MOLM-14, 48 h
pIC50: −log10 of the molar value.
Returns met if the recorded pIC50 is greater than or equal to 7, and not met otherwise.

Hello, I need to know if F[C@H]1CCNC[C@@H]1Nc1cccc(-c2cnc3cnc(C4(C(F)(F)F)CC4)cn23)n1 [Compound 13] has measured pIC50 not below 7. Thanks!
met

Hello, I need to know if O=C1COCCN1c1cn2c(-c3cccc(N[C@H]4CNCC[C@@H]4F)n3)cnc2cn1 [Compound 112] has measured pIC50 not below 7. Thanks!
met

Hello, I need to know if CC(C)(C)c1cn2c(-c3cccc(N[C@@H]4CCCNC4)n3)cnc2cn1 [Compound 129] has measured pIC50 not below 7. Thanks!
met

Hello, I need to know if CC(C)(C)c1cn2c(-c3cccc(N[C@H]4CNCC[C@@H]4F)n3)cnc2cn1 [Compound 130] has measured pIC50 not below 7. Thanks!
met

Hello, I need to know if O=S1(=O)CCCCN1c1cn2c(-c3nc(N[C@H]4CNC[C@@H]4F)c(F)cc3F)cnc2cn1 [Compound 102] has measured pIC50 not below 7. Thanks!
not met

Hello, I need to know if O=C1CCCCN1c1cn2c(-c3cccc(N[C@@H]4CCCNC4)n3)cnc2cn1 [Compound 113] has measured pIC50 not below 7. Thanks!
not met

Hello, I need to know if F[C@H]1CCNC[C@@H]1Nc1cccc(-c2cnc3cnc(C4CC4)cn23)n1 [Compound 51] has measured pIC50 not below 7. Thanks!
met

Hello, I need to know if CC(C)Oc1cn2c(-c3cccc(N[C@@H]4CCCNC4)n3)cnc2cn1 [Compound 131] has measured pIC50 not below 7. Thanks!
met

Hello, I need to know if CC(C)(C)c1cn2c(-c3cc(F)cc(N[C@H]4CNC[C@@H]4F)n3)cnc2cn1 [Compound 122] has measured pIC50 not below 7. Thanks!
not met

Hello, I need to know if O=S1(=O)CCCCN1c1cn2c(-c3nc(N[C@@H]4CCCNC4)c(F)cc3F)cnc2cn1 [Compound 101] has measured pIC50 not below 7. Thanks!
not met

Hello, I need to know if FC(F)c1cn2c(-c3cccc(N[C@H]4CNCC[C@@H]4F)n3)cnc2cn1 [Compound 25] has measured pIC50 not below 7. Thanks!
met

Hello, I need to know if F[C@H]1CNC[C@@H]1Nc1cccc(-c2cnc3cnc(C4CC4)cn23)n1 [Compound 50] has measured pIC50 not below 7. Thanks!
met

Hello, I need to know if CC1(c2cn3c(-c4cccc(N[C@H]5CNCC56CC6)n4)cnc3cn2)CC1 [Compound 5] has measured pIC50 not below 7. Thanks!
met

Hello, I need to know if Cn1cc(-c2cn3c(-c4cccc(N[C@@H]5CCCNC5)n4)cnc3cn2)cn1 [Compound 43] has measured pIC50 not below 7. Thanks!
met

Hello, I need to know if O=S1(=O)CCCN1c1cn2c(-c3cccc(N[C@@H]4CCCNC4)n3)cnc2cn1 [Compound 96] has measured pIC50 not below 7. Thanks!
met

Hello, I need to know if C[C@H]1CNC[C@@H]1Nc1cccc(-c2cnc3cnc(C(C)(C)O)cn23)n1 [Compound 29] has measured pIC50 not below 7. Thanks!
met

Hello, I need to know if FC(F)c1cn2c(-c3cccc(N[C@H]4CNC[C@@H]4F)n3)cnc2cn1 [Compound 16] has measured pIC50 not below 7. Thanks!
met

Hello, I need to know if O=C1NCCN1c1cn2c(-c3cccc(N[C@H]4CNCC[C@@H]4F)n3)cnc2cn1 [Compound 118] has measured pIC50 not below 7. Thanks!
met

Hello, I need to know if C[C@H]1CNC[C@@H]1Nc1cccc(-c2cnc3cnc(C4(C(F)(F)F)CC4)cn23)n1 [Compound 11] has measured pIC50 not below 7. Thanks!
met

Hello, I need to know if F[C@H]1CNC[C@@H]1Nc1cccc(-c2cnc3cnccn23)n1 [Compound 68] has measured pIC50 not below 7. Thanks!
met

Hello, I need to know if CC(C)(O)c1cn2c(-c3nc(N[C@H]4CNC[C@@H]4F)c(F)cc3F)cnc2cn1 [Compound 33] has measured pIC50 not below 7. Thanks!
not met

Hello, I need to know if FC(F)COc1cn2c(-c3cccc(N[C@H]4CNCC[C@@H]4F)n3)cnc2cn1 [compound 76] has measured pIC50 not below 7. Thanks!
met

Hello, I need to know if O=C1CCCN1c1cn2c(-c3cccc(N[C@H]4CNCC[C@@H]4F)n3)cnc2cn1 [Compound 119] has measured pIC50 not below 7. Thanks!
met
